logP overview
assay notes: Partition coefficient (logP)
run parameters: octanol/water
No unit in the answer, please; the number alone is enough.

Known results for molecules:
>>> recorded_number("O=C1c2ccccc2-c2nnc(-c3ccc(O)cc3)cc21")
2.88
>>> recorded_number("Cc1cc2c(nn1)-c1ccccc1C2=O")
1.58
>>> recorded_number("O=C1c2ccccc2-c2nnccc21")
1.22
>>> recorded_number("O=C1c2ccccc2-c2nnc(C(F)(F)F)cc21")
2.21
>>> recorded_number("O=C1c2ccccc2-c2nncc(-c3ccccc3)c21")
2.8

// next entry
molecule O=C1c2ccccc2-c2nnc(-c3ccccc3[N+](=O)[O-])cc21 , logP observed: 2.64
